TARGET OF ASSAY: T1, EsCas13d, nuclease-dead (Eubacterium siraeum, UniProt B0MS50, R295A;H300A;R849A;H854A)
T1 sequence: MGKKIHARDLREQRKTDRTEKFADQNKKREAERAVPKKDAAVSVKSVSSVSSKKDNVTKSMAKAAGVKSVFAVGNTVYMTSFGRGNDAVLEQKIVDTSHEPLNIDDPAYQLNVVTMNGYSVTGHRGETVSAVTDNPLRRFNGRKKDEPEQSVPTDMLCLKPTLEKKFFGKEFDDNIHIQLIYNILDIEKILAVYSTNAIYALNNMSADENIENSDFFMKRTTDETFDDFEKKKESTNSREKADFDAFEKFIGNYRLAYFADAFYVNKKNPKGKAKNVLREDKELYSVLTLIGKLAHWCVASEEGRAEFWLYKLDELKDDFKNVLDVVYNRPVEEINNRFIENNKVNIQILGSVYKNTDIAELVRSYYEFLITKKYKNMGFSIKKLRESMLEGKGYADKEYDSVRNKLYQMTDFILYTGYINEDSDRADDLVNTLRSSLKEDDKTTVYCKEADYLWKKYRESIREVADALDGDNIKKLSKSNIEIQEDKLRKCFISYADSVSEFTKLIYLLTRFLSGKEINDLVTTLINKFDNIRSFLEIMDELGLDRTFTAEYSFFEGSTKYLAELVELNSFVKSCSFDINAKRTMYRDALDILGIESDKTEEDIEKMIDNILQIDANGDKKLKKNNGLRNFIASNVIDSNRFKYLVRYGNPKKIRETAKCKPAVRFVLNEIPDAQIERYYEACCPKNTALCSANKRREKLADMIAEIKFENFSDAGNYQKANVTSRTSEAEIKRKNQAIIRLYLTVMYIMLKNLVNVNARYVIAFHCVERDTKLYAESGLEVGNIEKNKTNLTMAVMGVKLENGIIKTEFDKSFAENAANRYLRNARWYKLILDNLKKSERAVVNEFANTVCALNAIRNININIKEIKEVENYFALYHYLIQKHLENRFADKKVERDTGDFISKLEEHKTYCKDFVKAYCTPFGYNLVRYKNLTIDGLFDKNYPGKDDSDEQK
ASSAY TEXT: crRNA (strand 1, pre-loaded); Mg2+; 40 mM Tris-HCl pH 7.5, 150 mM NaCl, 6 mM MgCl2, 1 mM DTT, 0.1% Tween-20, 0.2 mg/ml BSA; 25 C; 10 min per concentration, then washed
STUDY CONDITIONS: tags: His6-TwinStrep-SUMO cleaved; N-terminal SNAP kept (SNAP-Surface 488); label: 3' end held by stalled T7 RNA polymerase
EXPERIMENTAL READOUT: Kd (nM)
Output spec: scalar in nM, unitless text.

Reported Kd of target 2 MT 5'PFS AGU 3'PFS UAC (mixed) RNA 1: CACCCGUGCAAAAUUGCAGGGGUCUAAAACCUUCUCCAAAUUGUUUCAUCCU RNA 2: GGGAAUGGAUCCACAUCUACGAAUUCAGUAGGAUGAAACAAUUUGGAGAAGUACAGAUCGGAAGAGCACACGU : 15.1

Reported Kd of target 1 insU 3' of 20,insG 3' of 19 (mixed) RNA 1: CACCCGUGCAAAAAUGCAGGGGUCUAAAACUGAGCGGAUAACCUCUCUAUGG RNA 2: GGGAAUGGAUCCACAUCUACGAAUUCGUACCAUUGAGAGAGGUUAUCCGCUCACCGAGAUCGGAAGAGCACACGU : 30.4

Reported Kd of target 1 insA 3' of 17,insG 3' of 9 (mixed) RNA 1: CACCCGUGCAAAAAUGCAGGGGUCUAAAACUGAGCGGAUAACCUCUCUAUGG RNA 2: GGGAAUGGAUCCACAUCUACGAAUUCGUACCAUAGAAGAGGUUAGUCCGCUCACCGAGAUCGGAAGAGCACACGU : 22.2

Reported Kd of target 1 C2G,U10A (mixed) RNA 1: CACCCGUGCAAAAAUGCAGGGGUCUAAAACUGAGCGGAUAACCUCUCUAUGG RNA 2: GGGAAUGGAUCCACAUCUACGAAUUCGUACCAUAGAGAGGUAAUCCGCUGACCGAGAUCGGAAGAGCACACGU : 12.7

Reported Kd of target 1 insU 3' of 6,insG 3' of 2 (mixed) RNA 1: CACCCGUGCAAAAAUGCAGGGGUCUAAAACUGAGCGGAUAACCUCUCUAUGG RNA 2: GGGAAUGGAUCCACAUCUACGAAUUCGUACCAUAGAGAGGUUAUCCUGCUCGACCGAGAUCGGAAGAGCACACGU : 15.3

Reported Kd of target 2 MT 5'PFS ACC 3'PFS UGA (mixed) RNA 1: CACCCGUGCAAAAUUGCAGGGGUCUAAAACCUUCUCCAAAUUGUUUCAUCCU RNA 2: GGGAAUGGAUCCACAUCUACGAAUUCACCAGGAUGAAACAAUUUGGAGAAGUGAAGAUCGGAAGAGCACACGU : 8

Reported Kd of target 3 U2G,G3U (mixed) RNA 1: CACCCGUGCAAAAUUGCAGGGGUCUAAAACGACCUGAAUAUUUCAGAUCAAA RNA 2: GGGAAUGGAUCCACAUCUACGAAUUCGUUUUUGAUCUGAAAUAUUCAGUGCUGCAGAUCGGAAGAGCACACGU : 9.2
